Please respond with reported IC50 for every item in the list.
biological target: ALK2 R206H (GST-tagged mutant ALK2) (Homo sapiens, UniProt Q04771, R206H); construct: purchased Carna Bioscience or ThermoFisher 09-148 or PV6232; test: ALK binding assay (LANTHASCREEN TR-FRET competitive binding, displacement of Kinase Tracer 178); settings: ALK2 R206H, LANTHASCREEN TR-FRET competitive binding; read-out: Binding Assay (IC50)
Sequence (Q04771 21-509 R206H): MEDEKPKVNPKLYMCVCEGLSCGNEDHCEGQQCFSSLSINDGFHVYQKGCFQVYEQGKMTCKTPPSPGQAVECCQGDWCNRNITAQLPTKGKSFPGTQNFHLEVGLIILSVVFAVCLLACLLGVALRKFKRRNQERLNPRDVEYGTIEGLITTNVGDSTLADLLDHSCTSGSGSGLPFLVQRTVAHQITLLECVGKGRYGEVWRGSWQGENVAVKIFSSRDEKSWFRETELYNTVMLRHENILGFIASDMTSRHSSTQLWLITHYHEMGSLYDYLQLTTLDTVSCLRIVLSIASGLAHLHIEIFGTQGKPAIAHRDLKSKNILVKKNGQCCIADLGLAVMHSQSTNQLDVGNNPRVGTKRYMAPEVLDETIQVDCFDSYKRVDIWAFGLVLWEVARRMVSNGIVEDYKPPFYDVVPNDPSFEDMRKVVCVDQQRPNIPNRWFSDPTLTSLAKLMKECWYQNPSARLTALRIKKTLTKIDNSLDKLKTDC

The recorded IC50 for COC1(c2ccc(-c3cc4c(N5CCN(C(=O)[C@H]6C[C@H](C#N)C6)CC5)ccnn4c3)cc2)CCN([C@@H](C)CO)CC1 [Compound 740] is < 10 nM

The recorded IC50 for COC1(c2ccc(-c3cc4c(N5CCN(C(=O)NC(C)C)CC5)ccnn4c3)c(F)c2)CCN(C(C)C)CC1 [Compound 721] is < 10 nM

The recorded IC50 for CCN1CCN(c2ccc(-c3cc4c(N5CCN(C(=O)C6CC6)CC5)ccnn4c3)cc2)C(=O)C1 [Compound 259] is 10 to 50 nM

The recorded IC50 for CCNC(=O)N1CCN(c2ccnn3cc(-c4ccc(C5CCN(C(C)C)CC5)cc4)cc23)CC1 [Compound 275] is < 10 nM

The recorded IC50 for CC(C)N1CC[C@@](O)(c2ccc(-c3cc4c(N5CCN(C(=O)C6CC6)CC5)ccnn4c3)nc2)C1 [Compound 526] is < 10 nM

The recorded IC50 for CC(C)N1C[C@H](c2ccc(-c3cc4c(N5CCN(C(=O)C6CC6)CC5)ccnn4c3)cc2)C[C@@H]1C [Compound 507] is < 10 nM

The recorded IC50 for CCN1CCN(c2ccc(-c3cc4c(N5CCN(C(C)=O)CC5)ccnn4c3)cc2)CC1 [Compound 136] is 10 to 50 nM
